tested.on: IL-17A (Homo sapiens)
Sequence (Q16552 24-155): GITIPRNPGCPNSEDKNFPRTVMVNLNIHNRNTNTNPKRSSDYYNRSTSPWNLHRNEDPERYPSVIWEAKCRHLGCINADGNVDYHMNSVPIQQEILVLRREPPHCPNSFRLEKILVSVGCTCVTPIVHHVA
measurement.description: HEK-Blue IL-17 cell assay (SEAP reporter, rhIL-17A/A stimulation)
test.settings: HEK-Blue IL-17 cells with rhIL-17A/A, 20 hours at 37° C., absorbance at 405 nm
result.type: IC50 (µM)

Guide cases for IC50, answers given:
CC(=O)N1CC(c2ccc(NC(=O)[C@@H](NC(=O)c3ccnn3C(C)C)C(C3CC3)C3CC3)cc2)[C@@H](C(=O)N2CC(F)(F)C(F)(F)C2)C1 (stereo partly drawn) : 0.132
CC(=O)N1C[C@H](C(=O)NCC(C)(F)F)[C@@H](c2ccc(NC(=O)[C@@H](NC(=O)c3ccnn3C(C)C)C3CCCCCC3)cc2)C1 : 0.103
COC(=O)N1C[C@H](C(=O)N2CC(F)(F)C2)[C@@H](c2ccc(NC(=O)[C@@H](NC(=O)c3ccnn3C(C)C)C3CCCCCC3)cc2)C1 : 0.11
CC(=O)N1C[C@H](C(=O)N2CCN(C)CC2)[C@@H](c2ccc(NC(=O)[C@@H](NC(=O)c3ccnn3C(C)C)C3CCCCCC3)cc2)C1 : 1.86

1 = CC(C)n1nccc1C(=O)N[C@H](c1nc2c(F)cc(C3=C(C(=O)N4CC(F)(F)C4)CN(C(=O)OCc4ccccc4)C3)cc2[nH]1)C1CCCCCC1
2 = CC(=O)N1CC(c2ccc(NC(=O)[C@@H](NC(=O)c3ccnn3C(C)C)C3CCCCCC3)cc2)[C@H](C(=O)N2CC(F)(F)C(F)(F)C2)C1 (stereo partly drawn) [Cis-62]
Of the two listed items, 1 and 2 , which carries the larger IC50 figure? # reply format: chosen label
1
